- experimental system: T1, human SIRPβ1 domain 1 (D1) Fc fusion (human, UniProt O00241 30-148)
- T1 construct: Made in HEK293/T cells with a heterologous signal peptide; also called Human SIRPβ1 D1-Fc; Human SIRPβ1-Fc; not shown: C-terminal human IgG1 Fc
- T1 sequence (O00241 30-148 limits assumed): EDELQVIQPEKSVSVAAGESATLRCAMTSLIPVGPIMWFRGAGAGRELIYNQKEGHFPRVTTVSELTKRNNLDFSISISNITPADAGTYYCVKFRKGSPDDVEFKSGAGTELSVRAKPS
- protocol summary: Octet, Fab monovalent
measure: pKd
The quantity pKd is defined as the negative base-10 logarithm of the molar concentration.

Study these solved cases before continuing.
binder	pKd
SB-40-21 Fab (Fab, V domains shown, Fab by papain digestion) VH: QVQLVQSGAEVKKPGASVKVSCKASGYTFTSYYMVWVRQAPGQGLEWMGIINPSSGDTNYAQKFQGRVTMTRDTSISTAYMELSRLRSDDTAVYYCARDTGEYSYSPHGMDVWGQGTTVTVSS VL: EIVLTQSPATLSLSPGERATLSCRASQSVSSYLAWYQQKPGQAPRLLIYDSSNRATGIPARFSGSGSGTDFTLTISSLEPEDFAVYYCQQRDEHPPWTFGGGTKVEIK	7.39
SB-8-13 Fab (Fab, V domains shown, Fab by papain digestion) VH: QVQLQESGPGLVKPSETLSLTCAVSGYSISAHYYWGWIRQPPGKGLEWIGSIFHSGHTYYNPSLKSRVTISVDTSKNQFSLKLSSVTAADTAVYYCARGGAMTPAGMDVWGQGTTVTVSS VL: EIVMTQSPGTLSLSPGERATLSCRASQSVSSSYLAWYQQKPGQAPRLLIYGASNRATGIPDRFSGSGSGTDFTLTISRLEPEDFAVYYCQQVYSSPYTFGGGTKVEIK	8.55
SB-2-7 Fab (Fab, V domains shown, Fab by papain digestion) VH: EVQLLESGGGLVQPGGSLRLSCAASGFTFARYGMHWVRQAPGKGLEWVSAISGLAGPTYADSVKGRFTISRDNSKNTLYLQMNSLRAEDTAVYYCARDQTAAAAIWGMDVWGQGTTVTVSS VL: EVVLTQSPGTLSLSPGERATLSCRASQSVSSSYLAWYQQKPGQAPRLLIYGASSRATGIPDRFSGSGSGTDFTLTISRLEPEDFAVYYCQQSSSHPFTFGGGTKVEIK	8.21
SB-8 Fab (Fab, V domains shown, Fab by papain digestion) VH: QVQLQESGPGLVKPSETLSLTCAVSGYSISSGYYWGWIRQPPGKGLEWIGSIYHSGSTYYNPSLKSRVTISVDTSKNQFSLKLSSVTAADTAVYYCARGGAMTPAGMDVWGQGTTVTVSS VL: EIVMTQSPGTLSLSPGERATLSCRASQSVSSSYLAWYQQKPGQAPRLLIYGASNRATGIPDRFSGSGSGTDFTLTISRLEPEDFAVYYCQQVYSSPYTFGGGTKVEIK	6.82

Lab note: next binder to report on.
Consider the binder shown here: SB-2-10 Fab (Fab, V domains shown, Fab by papain digestion) VH: EVQLLESGGGLVQPGGSLRLSCAASGFTFGSYGMHWVRQAPGKGLEWVSAISGLAGQTYADSVKGRFTISRDNSKNTLYLQMNSLRAEDTAVYYCARDQTAAAAIWGMDVWGQGTTVTVSS VL: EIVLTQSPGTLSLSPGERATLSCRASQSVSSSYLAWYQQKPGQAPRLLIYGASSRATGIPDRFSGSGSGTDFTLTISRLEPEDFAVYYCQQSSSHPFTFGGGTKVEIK What is its recorded pKd?
7.91
